The values you see were collected from PubChem BioAssay (Tox21).

- ASSAY PROCEDURE: qHTS assay to identify small molecule agonists of the retinoic acid receptor (RAR) signaling pathway (AID 1159553)
- CONDITIONS: C3RL4 RARE luciferase reporter, agonist, 6 h; series mostly up to 73.3 µM
Inconclusive results are not listed. Activity calls are given as the source filed them. Calls follow the shape of the dose curve; as a rule, active = well fitted activation curve with a large enough effect in the repeat runs; inconclusive = weak or mixed curves, or effect the other way; inactive = no such curve, though single readings can be large or run the other way.
Returns: one label drawn from yes = active, no = inactive

Query: What was the test verdict on O=C(c1ccco1)N1CCNCC1 ?
Result: no

Query: Same read-out for Nc1cccc2c(=O)[nH][nH]c(=O)c12 ?
Result: no

Query: Same read-out for O=[N+]([O-])c1ccccc1CCO ?
Result: no

Query: Same read-out for CCC1=C(C)CN(C(=O)NCCc2ccc(S(=O)(=O)NC(=O)NC3CCC(C)CC3)cc2)C1=O (stereo not drawn) ?
Result: no

Query: Same read-out for CC(C)(C)N ?
Result: no

Query: Same read-out for Cc1c(N=C=O)cccc1N=C=O ?
Result: no

Query: Same read-out for CCCCCCCCOCCCN ?
Result: no

Query: Same read-out for CCCc1nc(C)c2c(=O)[nH]c(-c3cc(S(=O)(=O)N4CCN(CC)CC4)ccc3OCC)nn12 ?
Result: no

Query: Same read-out for CCC(=O)O[C@@H]1C[C@H]2CC[C@]1(C)C2(C)C ?
Result: no

Query: Same read-out for CC1(C)CC(O)CC(C)(C)N1[O] ?
Result: no

Query: Same read-out for OCCc1ccncc1 ?
Result: no

Query: Same read-out for Cc1cccc(C)c1NC(=O)CN1CCCC1 ?
Result: no

Query: Same read-out for Cc1ccc(Cl)c(OCC(O)CNC(C)(C)C)c1 (stereo not drawn) ?
Result: no

Query: Same read-out for O=C1C=CCCC1 ?
Result: no

Query: Same read-out for O=C(O)c1ccccc1[N+](=O)[O-] ?
Result: no

Query: Same read-out for Nc1ccc(C(=O)Oc2ccccc2)c(O)c1 ?
Result: yes

Query: Same read-out for CC(C)(C)c1ccc(CCC=O)cc1 ?
Result: no

Query: Same read-out for C/C=C1\[C@H]2C=C(C)C[C@]1(N)c1ccc(=O)[nH]c1C2 ?
Result: no

Query: Same read-out for C=CC(=O)OCCCCCCCCCC ?
Result: no

Query: Same read-out for CCCCCCCCCCCCSCCOCCO ?
Result: no

Query: Same read-out for CCC(C(=O)O)c1ccc(N2Cc3ccccc3C2=O)cc1 (stereo not drawn) ?
Result: yes

Query: Same read-out for CCC(C)C1N=C(C)C(C)S1 (stereo not drawn) ?
Result: no

Query: Same read-out for CCCCCCCCCCCC(=O)OCC ?
Result: no

Query: Same read-out for N#C[C@@H]1CC(F)(F)CN1C(=O)CNC1CC2CCC(C1)N2c1ncccn1 (stereo partly drawn) ?
Result: no

Query: Same read-out for CC(C)(O)C(=O)O ?
Result: no

Query: Same read-out for CC1=C(C)C(=O)C(CCCCC#CCCCC#CCO)=C(C)C1=O ?
Result: no

Query: Same read-out for Cc1nc2sccn2c(=O)c1CCN1CCC(=C(c2ccc(F)cc2)c2ccc(F)cc2)CC1 ?
Result: no

Query: Same read-out for COc1ccc(CN(CCN(C)C)c2ncccn2)cc1 ?
Result: no

----------
- ASSAY PROCEDURE: A CellTox Green Cytotoxicity Assay to monitor cytotoxicity in HepG2 cells - 0 hour (AID 1224882); also: nearly all actives have a fitted effect of over 35% in size
- CONDITIONS: CellTox Green fluorescence; series mostly up to 76.8 µM
Activity calls are given as the source filed them. Calls come from the whole dose curve; as a rule, active = well fitted activation curve with a large enough effect in the repeat runs; inconclusive = weak or mixed curves; inactive = flat fitted curve, though single readings scatter.
RESULT TYPE: cytotoxicity

The following compounds have reported results that may help.
>>> assay_value("COc1ccc(CN(CCN(C)C)c2ncccn2)cc1")
"inactive"
>>> assay_value("C=CC(O)CCCCC (stereo unspecified)")
"inactive"
>>> assay_value("Clc1cccc(C(c2ccc3nc[nH]c3c2)n2ccnc2)c1 (stereo unspecified)")
"inactive"
>>> assay_value("NC(=O)c1ccccc1")
"inactive"
>>> assay_value("CC(=O)Nc1ccccc1O")
"inactive"
>>> assay_value("O=C1C=CCCC1")
"inactive"
>>> assay_value("CC(Cc1ccccc1)(NC(=O)CN)c1ccccc1 (stereo unspecified)")
"inactive"
>>> assay_value("O=C(O)c1cccc(C(=O)O)c1C(=O)O")
"inactive"
>>> assay_value("CC(O)CN (stereo unspecified)")
"inactive"
>>> assay_value("C[C@]12CCC(=O)C=C1[C@@H]1C[C@@H]1[C@H]1[C@@H]3[C@@H]4C[C@@H]4[C@@]4(CCC(=O)O4)[C@@]3(C)CC[C@@H]12")
"inactive"

Query: Which cytotoxicity value is on record for OCCCO ?
Result: inactive

Query: Same read-out for NC(=O)c1cc[n+](CC2=C(C(=O)[O-])N3C(=O)[C@@H](NC(=O)Cc4cccs4)[C@H]3SC2)cc1 ?
Result: inactive

Query: Same read-out for C/C(=C\C(C)CC(C)CC(C)C)C1CC(=O)OC1=O (stereo unspecified) ?
Result: inactive

----------
- TESTED ON: Glucocorticoid receptor (Homo sapiens)
- ASSAY PROCEDURE: qHTS assay to identify small molecule antagonists of the glucocorticoid receptor (GR) signaling pathway (AID 720692)
- CONDITIONS: GR-bla HeLa, beta-lactamase FRET ratio, dexamethasone-stimulated, 18 h; series mostly up to 58.5 µM
Results filed as inconclusive are left out. Calls of active or inactive are those of the source. The call rests on the fitted dose curve; in most records, active means well fitted inhibition curve with a large enough effect in the signal ratio in the repeat runs (not every such curve was filed as active); inconclusive means weak or mixed curves, or effect the other way; inactive means no such curve, though single readings can be large or run the other way; the % refers to the signal ratio.
Returns: one label drawn from active, inactive

Query: What was the test verdict on CC(O)C(C)O (stereo not drawn) ?
Result: inactive

Query: Same read-out for COc1ccc(C(=O)Nc2ccccc2)cc1[N+](=O)[O-] ?
Result: inactive

Query: Same read-out for O=C(OCCCCCOC(=O)c1ccccc1)c1ccccc1 ?
Result: inactive

Query: Same read-out for CCCCCCCCNC ?
Result: inactive

Query: Same read-out for CC1=C(C)C(=O)C(C(CCCCCC(=O)O)c2ccccc2)=C(C)C1=O (stereo not drawn) ?
Result: inactive

Query: Same read-out for CC/C=C\CCO ?
Result: inactive

Query: Same read-out for CS(C)=O ?
Result: inactive

Query: Same read-out for CC(C)CCCCCOC(=O)CS ?
Result: inactive

Query: Same read-out for CC(O)CN (stereo not drawn) ?
Result: inactive

Query: Same read-out for Cc1cc(SC2=C(O)C[C@@](CCc3ccc(N)cc3)(C(C)C)OC2=O)c(C(C)(C)C)cc1CO ?
Result: active

Query: Same read-out for CC(C)(C)N ?
Result: inactive

Query: Same read-out for O=C(O)c1cc(C(=O)O)cc([N+](=O)[O-])c1 ?
Result: inactive

Query: Same read-out for C[C@H](CN1CCCC1)C(=O)c1ccc(C(F)(F)F)cc1 ?
Result: inactive

----------
- TESTED ON: Cytochrome P450 2C19 (Homo sapiens) (UniProt P33261)
- Sequence (P33261 whole entry, looked up): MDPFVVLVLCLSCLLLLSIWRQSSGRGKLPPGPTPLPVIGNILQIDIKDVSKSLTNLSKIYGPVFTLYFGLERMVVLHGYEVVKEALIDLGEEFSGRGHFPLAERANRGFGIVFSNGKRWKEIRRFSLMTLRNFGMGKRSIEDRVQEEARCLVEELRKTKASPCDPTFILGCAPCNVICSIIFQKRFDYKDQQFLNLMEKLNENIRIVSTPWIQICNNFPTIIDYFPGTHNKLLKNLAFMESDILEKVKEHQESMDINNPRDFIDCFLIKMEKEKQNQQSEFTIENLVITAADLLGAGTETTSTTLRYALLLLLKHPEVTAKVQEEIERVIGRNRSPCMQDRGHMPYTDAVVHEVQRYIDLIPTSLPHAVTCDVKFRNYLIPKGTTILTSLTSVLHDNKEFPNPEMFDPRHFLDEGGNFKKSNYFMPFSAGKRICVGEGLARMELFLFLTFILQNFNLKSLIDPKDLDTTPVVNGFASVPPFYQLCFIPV
- ASSAY PROCEDURE: Cytochrome P450 Family 2 Subfamily C Member 19 (CYP2C19) small molecule antagonists: luciferase reporter qHTS assay (AID 1671197); also: nearly all actives have a fitted effect of over 65% in size
- CONDITIONS: P450-Glo CYP2C19 enzyme, luciferin luminescence, 1 h; series mostly up to 115 µM
- Source text: National Center for Advancing Translational Sciences [NCATS] U.S. Environmental Protection Agency [EPA] National Institutes of Environmental Health Sciences [NIEHS] National Toxicology Program [NTP] U.S. Food and Drug Administration [FDA] Cytochrome P450 (CYP) enzymes are membrane-bound hemeproteins that play a key role in metabolism of drugs and xenobiotics. […] The luciferin products formed are detected with a luciferin detection reagent, and the amount of light produced is proportional to CYP activity. […]
Inconclusive results are not listed. The source made the active and inactive calls. Calls follow the shape of the dose curve; as a rule, active = well fitted inhibition curve with a large enough effect in the repeat runs; inconclusive = weak or mixed curves; inactive = no such curve, though single readings can be large or run the other way.
Returns: one label drawn from active, inactive

Query: What was the test verdict on CCCN(C1CCN(C(=O)C2CCNCC2)CC1)[C@@H]1CCc2ccc(OC)cc2C1 ?
Result: inactive

Query: Same read-out for Cc1c(Cl)cccc1Nc1ccccc1C(=O)O ?
Result: inactive

Query: Same read-out for CCCC(=O)OCc1ccccc1 ?
Result: inactive

Query: Same read-out for CC(CC(C#N)(c1ccccc1)C(C)C)N(C)C (stereo not given) ?
Result: inactive

Query: Same read-out for CCC(C)C1N=C(C)C(C)S1 (stereo not given) ?
Result: active

Query: Same read-out for C=C[Si]1(C)O[Si](C)(C=C)O[Si](C)(C=C)O[Si](C)(C=C)O1 (stereo not given) ?
Result: active

Query: Same read-out for O=C1C=CCCC1 ?
Result: inactive

Query: Same read-out for CC(COc1ccccc1)NC(C)C(O)c1ccc(O)cc1 (stereo not given) ?
Result: active

Query: Same read-out for CCOC(C)OCC ?
Result: active

Query: Same read-out for CCC(CC)C(=O)O ?
Result: inactive

Query: Same read-out for SCCOCCOCCS ?
Result: active

Query: Same read-out for Cc1ccccc1CCO ?
Result: inactive

Query: Same read-out for CC(=O)Nc1cccc(N)c1 ?
Result: active

Query: Same read-out for O=C1c2ccccc2C(=O)c2c1ccc(O)c2O ?
Result: inactive

Query: Same read-out for CCC(C(=O)O)c1ccc(N2Cc3ccccc3C2=O)cc1 (stereo not given) ?
Result: active
